test: Stability in PBS buffer assessed as drug degradation incubated for 30 to 120 mins by LC-MS/MS method; format: physicochemical; conditions: read-out: Drug degradation
readout.name: degraded

> print(dat)
                                   compound  readout.name  result
1  COc1cc(/C=C/C(=O)O[C@H]2CC[C@H](N(C)CCCCCOC(=O)c3cc(OC)c(OC)c(OC)c3)CC2)cc(OC)c1OC      degraded    < 5%
2  COc1cc(/C=C/C(=O)O[C@H]2CC[C@@H](N(C)CCCOC(=O)c3cc(OC)c(OC)c(OC)c3)CC2)cc(OC)c1OC      degraded    < 5%
3  COc1cc(/C=C/C(=O)OCCCCCN(C)[C@H]2CC[C@@H](OC(=O)c3cc(OC)c(OC)c(OC)c3)CC2)cc(OC)c1OC      degraded    < 5%
4  COc1cc(/C=C/C(=O)O[C@H]2CC[C@@H](N(C)CCCCCOC(=O)c3cc(OC)c(OC)c(OC)c3)CC2)cc(OC)c1OC      degraded    < 5%
5  COc1cc(/C=C/C(=O)OCCCN(C)[C@H]2CC[C@H](OC(=O)c3cc(OC)c(OC)c(OC)c3)CC2)cc(OC)c1OC      degraded    < 5%
6  COc1cc(/C=C/C(=O)OCCCN(C)[C@H]2CC[C@@H](OC(=O)c3cc(OC)c(OC)c(OC)c3)CC2)cc(OC)c1OC      degraded    < 5%
7  COc1cc(/C=C/C(=O)O[C@H]2CC[C@@H](N(C)CCCCOC(=O)c3cc(OC)c(OC)c(OC)c3)CC2)cc(OC)c1OC      degraded    < 5%
8  COc1cc(/C=C/C(=O)O[C@H]2CC[C@H](N(C)CCCOC(=O)c3cc(OC)c(OC)c(OC)c3)CC2)cc(OC)c1OC      degraded    < 5%

---

test: Half life in human plasma by LC-MS/MS method; assay type: ADME, cell-free
readout.name: half-life

> print(dat)
                                   compound    result
1  COc1cc(/C=C/C(=O)OCCCCN(C)[C@H]2CC[C@H](OC(=O)c3cc(OC)c(OC)c(OC)c3)CC2)cc(OC)c1OC  2 to 4 h
2  COc1cc(/C=C/C(=O)O[C@H]2CC[C@H](N(C)CCCCOC(=O)c3cc(OC)c(OC)c(OC)c3)CC2)cc(OC)c1OC     ≤ 2 h
3  CCOC(=O)C(C)c1cccc(C(=O)c2ccccc2)c1 (stereo unspecified)     < 2 h
4  COc1cc(/C=C/C(=O)OCCCCCN(C)[C@H]2CC[C@H](OC(=O)c3cc(OC)c(OC)c(OC)c3)CC2)cc(OC)c1OC     ≥ 4 h
5  COc1cc(/C=C/C(=O)O[C@H]2CC[C@H](N(C)CCCOC(=O)c3cc(OC)c(OC)c(OC)c3)CC2)cc(OC)c1OC     ≤ 1 h
6  COc1cc(/C=C/C(=O)O[C@H]2CC[C@@H](N(C)CCCOC(=O)c3cc(OC)c(OC)c(OC)c3)CC2)cc(OC)c1OC     ≥ 4 h

---

species on record: Homo sapiens; assay: Inhibition of P-gp in human K562/DOX cells assessed as potentiation of doxorubicin-induced cytotoxicity by measuring reduction in doxorubicin IC50 at 3 uM incubated for 72 hrs by MTT assay relative to control; type: cell-based
readout.name: Ratio IC50

> print(dat)
                                   compound  readout.name  numeric.value
1  COc1cc(/C=C/C(=O)O[C@H]2CC[C@H](N(C)CCCCOC(=O)c3cc(OC)c(OC)c(OC)c3)CC2)cc(OC)c1OC    Ratio IC50             50
2  COc1cc(/C=C/C(=O)O[C@H]2CC[C@@H](N(C)CCCCCOC(=O)c3cc(OC)c(OC)c(OC)c3)CC2)cc(OC)c1OC    Ratio IC50           14.7
3  COc1cc(/C=C/C(=O)O[C@H]2CC[C@@H](N(C)CCCCOC(=O)c3cc(OC)c(OC)c(OC)c3)CC2)cc(OC)c1OC    Ratio IC50           34.9
4  COc1cc(/C=C/C(=O)O[C@H]2CC[C@H](N(C)CCCCCOC(=O)c3cc(OC)c(OC)c(OC)c3)CC2)cc(OC)c1OC    Ratio IC50           57.9

---

species on record: Homo sapiens
Collected I0.5 values appear next to each entry.
readout.name: I0.5 (µM)

> print(dat)
                                   compound  readout.name  value.unit  numeric.value
1  COc1cc(/C=C/C(=O)OCCCCN(C)[C@H]2CC[C@H](OC(=O)c3cc(OC)c(OC)c(OC)c3)CC2)cc(OC)c1OC          I0.5          µM           0.08
2  COc1cc(/C=C/C(=O)O[C@H]2CC[C@H](N(C)CCCCOC(=O)c3cc(OC)c(OC)c(OC)c3)CC2)cc(OC)c1OC          I0.5          µM           0.06
3  COc1cc(/C=C/C(=O)OCCCCN(C)[C@H]2CC[C@@H](OC(=O)c3cc(OC)c(OC)c(OC)c3)CC2)cc(OC)c1OC          I0.5          µM           0.35
4  COc1cc(/C=C/C(=O)OCCCN(C)[C@H]2CC[C@H](OC(=O)c3cc(OC)c(OC)c(OC)c3)CC2)cc(OC)c1OC          I0.5          µM           0.08

---

assay: Half life in human plasma by LC-MS/MS method; assay type: ADME, cell-free
readout.name: half-life

> print(dat)
                                   compound    result
1  COc1cc(/C=C/C(=O)OCCCN(C)[C@H]2CC[C@H](OC(=O)c3cc(OC)c(OC)c(OC)c3)CC2)cc(OC)c1OC     ≤ 2 h
2  COc1cc(/C=C/C(=O)OCCCN(C)[C@H]2CC[C@@H](OC(=O)c3cc(OC)c(OC)c(OC)c3)CC2)cc(OC)c1OC  2 to 4 h
3  COc1cc(/C=C/C(=O)O[C@H]2CC[C@@H](N(C)CCCCOC(=O)c3cc(OC)c(OC)c(OC)c3)CC2)cc(OC)c1OC     ≥ 4 h
4  COc1cc(/C=C/C(=O)OCCCCCN(C)[C@H]2CC[C@@H](OC(=O)c3cc(OC)c(OC)c(OC)c3)CC2)cc(OC)c1OC     ≥ 4 h
5  COc1cc(/C=C/C(=O)OCCCCN(C)[C@H]2CC[C@@H](OC(=O)c3cc(OC)c(OC)c(OC)c3)CC2)cc(OC)c1OC     ≥ 4 h
6  COc1cc(/C=C/C(=O)O[C@H]2CC[C@@H](N(C)CCCCCOC(=O)c3cc(OC)c(OC)c(OC)c3)CC2)cc(OC)c1OC     ≥ 4 h
7  COc1cc(/C=C/C(=O)O[C@H]2CC[C@H](N(C)CCCCCOC(=O)c3cc(OC)c(OC)c(OC)c3)CC2)cc(OC)c1OC     ≥ 4 h

---

tested on: K562; test: Potentiation of doxorubicin-induced cytotoxicity in human K562 cells assessed as reduction in cell viability at 0.1 to 3 uM incubated for 72 hrs by MTT assay; format: cell-based; details: k562, 72 h
readout.name: Activity

> print(dat)
                                   compound  readout.name     result
1  COc1cc(/C=C/C(=O)O[C@H]2CC[C@@H](N(C)CCCCOC(=O)c3cc(OC)c(OC)c(OC)c3)CC2)cc(OC)c1OC      Activity  Non-Toxic
2  COc1cc(/C=C/C(=O)O[C@H]2CC[C@H](N(C)CCCCCOC(=O)c3cc(OC)c(OC)c(OC)c3)CC2)cc(OC)c1OC      Activity  Non-Toxic
3  COc1cc(/C=C/C(=O)O[C@H]2CC[C@H](N(C)CCCCOC(=O)c3cc(OC)c(OC)c(OC)c3)CC2)cc(OC)c1OC      Activity  Non-Toxic
4  COc1cc(/C=C/C(=O)O[C@H]2CC[C@@H](N(C)CCCCCOC(=O)c3cc(OC)c(OC)c(OC)c3)CC2)cc(OC)c1OC      Activity  Non-Toxic

---

Collected remaining at 2 h values appear next to each entry.
assay: Stability in human plasma assessed as parent compound remaining incubated for 120 mins by LC-MS/MS method; type: ADME, cell-free; details: read-out: Stability
readout.name: remaining at 2 h (%)

> print(dat)
                                   compound  value.unit  numeric.value
1  COc1cc(/C=C/C(=O)OCCCCN(C)[C@H]2CC[C@H](OC(=O)c3cc(OC)c(OC)c(OC)c3)CC2)cc(OC)c1OC           %             50
2  COc1cc(/C=C/C(=O)OCCCN(C)[C@H]2CC[C@@H](OC(=O)c3cc(OC)c(OC)c(OC)c3)CC2)cc(OC)c1OC           %             75
